Here, each record is paired with measured Potency data.
Biological target: 4'-phosphopantetheinyl transferase ffp (Bacillus subtilis)
Experiment: qHTS Assay for Inhibitors of Bacillus subtilis Sfp phosphopantetheinyl transferase (PPTase);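 further: the enzyme is Sfp with the accession as filed and its product quenches rhodamine fluorescence; potency means the concentration at half of the fitted maximal effect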
Details: Biochemical Sfp PPTase activity
The campaign covered roughly 310,000 compounds. About 11,000 (3.5%) were called active. Roughly 4% stayed inconclusive and do not appear here. The list comes from a sample in which actives are over-represented; it also holds close analogues and randomly drawn compounds.

Known results for compounds:
CCOC(=O)c1cc2n(c1N)-c1ccccc1C2=O	8.91 µM (active)
O=C(CSc1ccc2nnc(-c3ccccc3)n2n1)N1CCCc2ccccc21	8.91 µM (active)
c1ccc(COc2nsnc2N2CCOCC2)cc1	28.2 µM (active)
Oc1ccc(-c2onc3ccc(Cl)cc23)cc1	22.4 µM (active)
CNC(=S)N/N=C/c1ccc(N2CCOCC2)s1	8.91 µM (active)
Cc1sc(NC(=O)C2C3CCC(O3)C2C(=O)O)c(C(=O)OC(C)C)c1-c1ccc(Cl)cc1 (stereo unspecified)	56.2 µM (active)
CCOC(=O)Cc1csc(NC(=O)CSc2nc(C)cc(=O)[nH]2)n1	17.8 µM (active)
COC(=O)c1ccc(CSc2ccc3nnc(-c4ccccc4)n3n2)o1	70.8 µM (active)

Enquiry: Request the reported Potency associated with Cc1cnc(CNc2ncncc2-c2ccccc2Cl)cn1
Return: 79.4 µM (active)

Enquiry: Query (compound): CCOc1ccc(OCC)c(-c2c(=O)n(OCc3ccc(Cl)cc3)c3ccccc3[n+]2[O-])c1 ; field requested: Potency
Return: 100 µM (active)

Enquiry: I am curious: what Potency value has been reported for COc1ccc(-n2c(=S)[nH]c3sc4c(c3c2=O)CCc2ccccc2-4)cc1 ?
Return: 17.8 µM (active)
